Recorded log10 Ki values (rat μ (C6-MOR) opioid receptor (Rattus norvegicus)) are given below.
Plainly stated, the numbers are log10 of Ki given in nM.

Guide cases for log10 Ki, answers given:
                                 smilesdata  numericreadout
0  Cc1cc(O)cc(C)c1C[C@H](N)C(=O)N(C)[C@@H]1CCNc2ccc(Cc3ccccc3)cc21           -0.05
1  Cc1cc(O)cc(C)c1C[C@H](N)C(=O)N[C@@H]1CCNc2ccc(CN3CCc4ccc(F)cc4C3)cc21           -0.77
2  Cc1cc(O)cc(C)c1C[C@H](N)C(=O)N[C@H]1CCOc2ccc(Cc3ccccc3)cc21            0.78
3  Cc1cc(O)cc(C)c1C[C@H](N)C(=O)N[C@H]1CCNc2ccc(Cc3ccc(F)cc3)cc21            1.00
4  Cc1cc(O)cc(C)c1C[C@H](N)C(=O)N[C@@H]1CCCc2ccc(Oc3ccccc3)cc21           -0.48

# per-item lookup of log10 Ki; items listed below
1. CC(=O)N1CC[C@@H](NC(=O)[C@@H](N)Cc2c(C)cc(O)cc2C)c2cc(Oc3cccc(Cl)c3)ccc21
2. CC(=O)N1CC[C@@H](NC(=O)[C@@H](N)Cc2c(C)cc(O)cc2C)c2cc(CN3CCc4ccc(F)cc4C3)ccc21
3. Cc1cc(C(N)=O)cc(C)c1C[C@H](N)C(=O)N[C@@H]1CCNc2ccc(Cc3ccccc3)cc21
4. N[C@@H](Cc1c(Cl)cc(O)cc1Cl)C(=O)N[C@@H]1CCCc2ccc(Oc3ccccc3)cc21
5. Cc1cc(O)cc(C)c1C[C@H](N)C(=O)N[C@@H]1CCNc2c(CN3CCNCC3)cc(Cc3ccccc3)cc21
6. Cc1cc(O)cc(C)c1C[C@H](N)C(=O)N[C@@H]1C[C@@H](C)Nc2ccc(Cc3ccccc3)cc21
7. Cc1cc(O)cc(C)c1C[C@H](N)C(=O)N[C@@H]1CCSc2ccc(Cc3ccccc3)cc21
8. Cc1cc(O)cc(C)c1C[C@H](N)C(=O)N[C@@H]1CCNc2c(-c3cc4ccccc4o3)cc(Cc3ccccc3)cc21

Result:
[-1.30, -1.30, -0.22, 0.18, -0.46, 0.09, -0.82, 0.50]

Request: Can you look up the measured log10 Ki of Cc1cc(O)cc(C)c1C[C@H](N)C(=O)N[C@@H]1CC[C@H](C)c2ccc(Cc3ccccc3)cc21 for me?
Result: -1.10
